Reported log10 of Kd values for a set of binders
- Target Desc: T1, human DLL3 (ACRO, DLL3-H52H4) (human, UniProt Q9NYJ7 27-492)
- T1 construct: Bought
- T1 sequence: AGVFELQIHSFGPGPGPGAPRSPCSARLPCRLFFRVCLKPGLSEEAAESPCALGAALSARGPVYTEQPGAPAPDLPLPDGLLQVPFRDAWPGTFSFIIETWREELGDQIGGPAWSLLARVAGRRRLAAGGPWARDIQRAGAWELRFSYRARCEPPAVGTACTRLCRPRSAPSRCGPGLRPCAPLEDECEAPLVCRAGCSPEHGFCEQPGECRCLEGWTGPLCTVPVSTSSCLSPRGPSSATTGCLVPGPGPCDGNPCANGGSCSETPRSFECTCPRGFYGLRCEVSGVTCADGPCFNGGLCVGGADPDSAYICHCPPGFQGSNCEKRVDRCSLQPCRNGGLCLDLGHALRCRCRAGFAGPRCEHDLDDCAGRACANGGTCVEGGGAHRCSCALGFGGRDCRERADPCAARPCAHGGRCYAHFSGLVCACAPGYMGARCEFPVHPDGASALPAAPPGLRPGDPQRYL
- Test Method Notes: SPR Biacore 8K, Ab captured on Protein A
A value of 2 here means Kd of 100 in nM, since values are log10.

For the binder shown here, hu110L2H6 (antibody, human IgG1, kappa, V domains shown) VH: EVQLVQSGAEVKKPGASVKVSCKTSGYTFTDYYMNWVRQAPGQSLEWMGIINPYNVGTSYTQKFKGRVTITVDKSASTAYMELSSLRSEDTAVYYCARHFYDSSYLTYSTMDYWGQGTTVTVSS VL: NIVMTQSPKSLAVSLGERATINCKASENVGIFVSWYQQKPGQSPKLLIYGASNRYTGVPDRFSGSGSATDFTLTISSLQAEDVADYYCGQSHSYPLTFGQGTKLEIKR , give the reported log10 of Kd.
-0.78

Okay, and hu110L1H5 (antibody, human IgG1, kappa, V domains shown) VH: EVQLVQSGAEVKKPGASVKVSCKTSGYTFTDYYMNWVRQAPGQSLEWMGIINPYTGGTSYTQKFKGRVTITVDKSASTAYMELSSLRSEDTAVYYCARHFYDSSYLTYSTMDYWGQGTTVTVSS VL: DIVMTQSPDSLAVSLGERATINCKASENVGIFVSWYQQKPGQSPKLLIYGASNRYTGVPDRFSGSGSATDFTLTISSLQAEDVAVYYCGQSHSYPLTFGQGTKLEIKR ?
-0.85

Okay, and hu110L2H1 (antibody, human IgG1, kappa, V domains shown) VH: EVQLVQSGAEVKKPGASVKVSCKASGYTFTDYYMNWVRQAPGQRLEWMGIINPYNGGTSYTQKFKGRVTITVDKSASTAYMELSSLRSEDTAVYYCARHFYDSSYLTYSTMDYWGQGTTVTVSS VL: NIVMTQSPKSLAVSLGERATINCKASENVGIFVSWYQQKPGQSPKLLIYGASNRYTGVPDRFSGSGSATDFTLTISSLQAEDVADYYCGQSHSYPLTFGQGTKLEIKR ?
-0.94

Okay, and hu6L2H6 (antibody, human IgG1, kappa, V domains shown) VH: EVQLVQSGSELKKPGASVKVSCKASGYTFTDYYMNWVRQAPGQGLEWMGIINPYSGVTIYNHKFKGRFVLSVDKSSNTAYLQISSLKAEDTAVYYCARQDSLLDYAMDYWGQGTTVTVSS VL: DIQMTQSPSSLSASVGDRVTITCHASQGISGNMGWLQQKPGKAPKGLIYHGANLEDGVPSRFSGSGSGADYTLTISSLQPEDFATYYCVQYAQFPYTFGGGTKVEIKR ?
-0.06

Okay, and hu110L1H2 (antibody, human IgG1, kappa, V domains shown) VH: EVQLVQSGAEVKKPGASVKVSCKTSGYTFTDYYMNWVRQAPGQSLEWMGIINPYNGGTSYTQKFKGRVTITVDKSASTAYMELSSLRSEDTAVYYCARHFYDSSYLTYSTMDYWGQGTTVTVSS VL: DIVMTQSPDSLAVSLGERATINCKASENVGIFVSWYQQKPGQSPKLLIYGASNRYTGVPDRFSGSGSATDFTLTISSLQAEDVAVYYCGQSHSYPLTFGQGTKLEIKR ?
-1.09

Okay, and hu30L2H1 (antibody, human IgG1, kappa, V domains shown) VH: EVQLVQSGAEVKKPGASVKVSCKASGYTFTDYYMNWVRQAPGQSLEWMGIINPYNGDTSYNQKFRGRVTITVDKSASTAYMELSSLRSEDTAVYYCARYHYGPHLEGYFDVWGQGTTVTVSS VL: DIVMTQSPDSLAVSLGERATINCKASENVGYVSWYQQKPGQPPKLLIYGASNRYTGVPDRFSGSGSATDFTLTISSLQAEDVAVYHCGQSYSYPLTFGQGTKLEIKR ?
-0.18
